- system: human CB1 receptor (Homo sapiens, UniProt P21554)
- Sequence (P21554 whole entry): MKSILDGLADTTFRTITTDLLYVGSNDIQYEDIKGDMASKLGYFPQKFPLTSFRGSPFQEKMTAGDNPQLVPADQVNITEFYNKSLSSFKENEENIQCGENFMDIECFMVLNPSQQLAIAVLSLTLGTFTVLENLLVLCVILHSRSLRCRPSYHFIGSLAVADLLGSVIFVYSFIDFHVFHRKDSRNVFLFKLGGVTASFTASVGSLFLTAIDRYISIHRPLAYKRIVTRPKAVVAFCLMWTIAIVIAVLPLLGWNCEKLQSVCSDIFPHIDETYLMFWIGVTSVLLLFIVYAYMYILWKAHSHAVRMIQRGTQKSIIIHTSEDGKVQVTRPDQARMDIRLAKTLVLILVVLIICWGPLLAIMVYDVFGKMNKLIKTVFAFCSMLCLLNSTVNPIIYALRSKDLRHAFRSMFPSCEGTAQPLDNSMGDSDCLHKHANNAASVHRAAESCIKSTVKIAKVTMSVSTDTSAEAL
- test details: Human CB1 receptor binding, [3H] CP-55,940 displacement on HEK cell membranes
- Design: expressed in transfected cells; membranes
- measurement setup: [3H] CP-55,940 500 pM
The label is criterion met for Ki below 8 nM and criterion not met for Ki equal to or exceeding 8 nM.

{"compound": "Cc1ccc2c(c1)n(CC1CCCCC1)c(=O)n2C(=O)NC1(C(N)=O)CCCCC1 [Example 266]", "assigned label": "criterion not met"}
{"compound": "CC(C)(C)[C@@H](CO)NC(=O)n1c(=O)n(CC2CCCCC2)c2ccccc21 [Example 176]", "assigned label": "criterion met"}
{"compound": "CC(C)(C)[C@H](NC(=O)n1c(=O)n(CC2CCOCC2)c2cc(C#N)ccc21)C(N)=O [Example 272]", "assigned label": "criterion not met"}
{"compound": "Cc1cc(CNC(=O)n2c(=O)n(CC3CCOCC3)c3ccccc32)no1 [Example 312]", "assigned label": "criterion not met"}

**Q:** Answer whether the compound Cc1cc(CNC(=O)n2c(=O)n(CC3CCOCC3)c3ccccc32)c(C(F)(F)F)o1 [Example 320] has Ki strictly less than 8 nM
**A:** criterion met

**Q:** Answer whether the compound CC(C)(C)[C@H](NC(=O)n1c(=O)n(CC2CCCCC2)c2c(Cl)cccc21)C(N)=O [Example 173] has Ki strictly less than 8 nM
**A:** criterion met

====

Form: system (human CB1 receptor (Homo sapiens, UniProt P21554)), quantity (pKi), values below.
One number for each entry, as −log10 of the molar value.

Worked set:
{"smiles structure": "O=C(N[C@H]1c2ccccc2C[C@H]1O)n1c(=O)n(CC2CCCCC2)c2ccccc21", "pKi": 8.72}
{"smiles structure": "CC(C)(C)[C@H](NC(=O)n1c(=O)n(CC2CCOCC2)c2ccccc21)C(=O)NC1CCC1", "pKi": 7.39}
{"smiles structure": "CC(C)(C)[C@H](NC(=O)n1c(=O)n(CC2CCOCC2)c2ccccc21)C(=O)NCC(N)=O", "pKi": 7.08}

**Q:** # get_value(readout= pKi, system= human CB1 receptor (Homo sapiens, UniProt P21554)) for CC(C)(C)[C@H](NC(=O)n1c(=O)n(CCCCC#N)c2ccccc21)C(N)=O
**A:** 6.99

====

- system: human CB1 receptor (Homo sapiens)
- test details: GTPγS binding on membranes of CHO cells expressing the human CB1 receptor
- measurement setup: CHO cell membranes, [35S] GTPγS
observed property: pEC50
One number for each entry, as −log10 of the molar value.

{"molecule": "Cc1cc(CNC(=O)n2c(=O)n(CC3CCOCC3)c3ccccc32)c(C(F)(F)F)o1", "system": "human CB1 receptor (Homo sapiens)", "value": 7.01}
{"molecule": "O=C(N[C@H]1CCCc2ccccc21)n1c(=O)n(CC2CCC2)c2ccccc21", "system": "human CB1 receptor (Homo sapiens)", "value": 7.33}
{"molecule": "CC(C)[C@H](NC(=O)n1c(=O)n(CC2CCCCC2)c2ccccc21)C(N)=O", "system": "human CB1 receptor (Homo sapiens)", "value": 7.13}
{"molecule": "CCCCCn1c(=O)n(C(=O)N[C@H]2c3ccccc3C[C@H]2O)c2ccccc21", "system": "human CB1 receptor (Homo sapiens)", "value": 6.39}
{"molecule": "CC(C)(C)[C@H](NC(=O)n1c(=O)n(CC2CCOCC2)c2cc(F)ccc21)C(=O)NCCCO", "system": "human CB1 receptor (Homo sapiens)", "value": 6.44}
{"molecule": "CC(C)(C)[C@H](NC(=O)n1c(=O)n(CC2CCOCC2)c2cc(F)ccc21)C(=O)NCCO", "system": "human CB1 receptor (Homo sapiens)", "value": 6.66}
{"molecule": "CC(C)(C)[C@H](NC(=O)n1c(=O)n(CC2CCCCC2)c2ccccc21)C(N)=O", "system": "human CB1 receptor (Homo sapiens)", "value": 7.01}
{"molecule": "Cc1nc(C(C)NC(=O)n2c(=O)n(CC3CCOCC3)c3ccccc32)cs1 (stereo not shown)", "system": "human CB1 receptor (Homo sapiens)", "value": 6.88}

Please look at the items below and tell me pEC50 for each one, in order.
1. CC(C)(C)[C@H](NC(=O)n1c(=O)n(Cc2ccccc2F)c2ccccc21)C(N)=O
2. CN(C)CC(C)(C)CNC(=O)n1c(=O)n(CC2CCCCC2)c2ccccc21

**A:**
1. 6.91
2. 6.57

Please look at the items below and tell me pEC50 for each one, in order.
1. Cc1nc(C)c(CNC(=O)n2c(=O)n(CC3CCOCC3)c3ccccc32)s1
2. CC(C)(C)[C@H](NC(=O)n1c(=O)n(CC2CC=C(F)CC2)c2ccccc21)C(N)=O (stereo partly shown) [Example 304]
3. CC(C)(C)[C@H](NC(=O)n1c(=O)n(CC2CC=C(F)CC2)c2ccccc21)C(N)=O (single isomer, unassigned) [Example 305]
4. CCCCn1c(=O)n(C(=O)N[C@H](C(N)=O)C(C)(C)C)c2ccccc21
5. CC(C)(C)[C@H](NC(=O)n1c(=O)n(CC2CCOCC2)c2ccccc21)C(=O)NCCCO
6. CC(C)(C)[C@H](NC(=O)n1c(=O)n(CC2CCOCC2)c2cc(C#N)ccc21)C(N)=O

**A:**
5.19
9.06
8.76
7.12
6.64
7.34

These entries and their values trace back to patent US20090298811A1.
